Test system: MS2 coat protein
Experiment: apparent KD of MS2 coat protein; designed switch direction (-1 OFF switch, 1 ON switch): -1; higher = weaker reporter binding
Details: Eterna round: R95; input ligand: none
RECORDED ENDPOINT: apparent KD of MS2 coat protein

Look over these answered cases.
| SEQUENCE CODE | EXPERIMENTAL SYSTEM | REPORTED VALUE |
| --- | --- | --- |
| ACUUAUAGAGGAUAUACAGAAUAUUACAUGAGGAUCACCCAUGUUCUUCAAUGUAUAUUUGUAGAAGGCUAAGGAA [EX-5 Malc#7] (puzzle: Exclusion 5) | MS2 coat protein | 40.6 nM |
| GGAAGAAUGAGUAGUCCUCAUUGAAGAGAAUAGUAAGAAACAUGAGGAUCACCCAUGUAAGAACAAGCUUUUGCUCA [JR_Sv3TOV2_Sub003] (puzzle: Sensor v3, turn-off variant 2) | MS2 coat protein | 179 nM |
| GAAAAGGUAGGAUAUACGAAAAAAAAGGGUAGAAAGAAAACACAUGAGGAUCACCCAUGUAGAAGGACCAAAAG [salish99_ex2_r3_017] (puzzle: Exclusion 2) | MS2 coat protein | 20.7 nM |
| UAUUACUCAGGAUAUAUGAUGUGAAACAUGAGGAUCACCCAUGUAAUAUUAUGGAUGUAAAUAGAAGGGAGAUUUU [Mat - Exclusion 5 - JL mod - D18] (puzzle: Exclusion 5) | MS2 coat protein | 54.8 nM |
| GUUAAGGUAGGAUAUACGAUAAUAGAGGGUAGAUAUAUAACACAUGAGGAUCACCCAUGUAGAAGGACCAAUUG [Mat - Exclusion 2 - Mod of my Tesla design - D58] (puzzle: Exclusion 2) | MS2 coat protein | 36.8 nM |
| AGUACUAUGCGAGCUGACUUGCGUAGUGCAGCAAGUGAAACAUGAGGAUCACCCAUGUCCUCAUUUGCUCGUCUUAU [Mat - Sensor v3 - Turn-off var 2 - D1] (puzzle: Sensor v3, turn-off variant 2) | MS2 coat protein | 30.8 nM |
| AGUACUAACACGAAAGUGUUAGUACAAUAAGCUUGUGAAACAUGAGGAUCACCCAUGUCCUCAUAAGCUCGUCUUAG [salish99_TOv2_r3_003] (puzzle: Sensor v3, turn-off variant 2) | MS2 coat protein | 15.4 nM |
| GAUUAUGCGAGCUUUAGGGACAUGAGGAUCACCCAUGUUCGUCUUAUUGAUCUGGGUACACUGACAUACCUAAAUCU [JMF 70] (puzzle: Sensor v3, turn-off variant 1) | MS2 coat protein | 110 nM |
| CGUACUGAAGUUAGGAUAUUGUCUCGGAUACGAAACAAGAAGGGACAUGAGGAUCACCCAUGUAGACAGUACGA [Malc #30 mod 4] (puzzle: Brourd's mod of Exclusion 4) | MS2 coat protein | 27.7 nM |

Attention now shifts to the item below.
# query: apparent KD of MS2 coat protein of entry CAAUAACAAGCGAGAUCCUACAUGAGGAUCACCCAUGUGCUCGUCUUAUAAAGUACUAUCACGAAAGUGAUAGUACA [Mat - Sensor v3 - turn-off var 1 - Eli Mod - D63] (puzzle: Sensor v3, turn-off variant 1)
14.9 nM
